# Subject Of Test: T1, PKC-α (purified isoform) (Homo sapiens (Human), UniProt P17252 2-672)
# T1 construct: also called purified PKC-alpha; commercially purified PKC-alpha
# Test Summary: competitive ELISA, coated purified PKC-α, vs anti-PKC α (SC-208); PRE 100 µM
relative binding capacity (100-%n, DMSO subtracted) by entry:
Return type: number; implicit unit %.

Worked set:
Ac-KDAQNLI-NH2 (Ac-KDAQNLI-NH2; also called peptide PRE 12) [PRE 12] :: 5.16
ILEDKGGDAQNLIGISI (also called peptide PRE 8) [PRE 8] :: 0
Ac-KDAQNLIGISI-NH2 (also called peptide PRE 4) [PRE 4] :: 21.9

Fill in the blank: the reported relative binding capacity (100-%n, DMSO subtracted) of Ac-ISIGILNQADK-NH2 (also called peptide PRE 10) [PRE 10] is ____.
0

Fill in the blank: the reported relative binding capacity (100-%n, DMSO subtracted) of Ac-ISIGILQNADK-NH2 (also called peptide PRE 7) [PRE 7] is ____.
6.72

Fill in the blank: the reported relative binding capacity (100-%n, DMSO subtracted) of Ac-RDAQNLI-NH2 (Ac-RDAQNLI-NH2; also called peptide PRE 13) [PRE 13] is ____.
0

Fill in the blank: the reported relative binding capacity (100-%n, DMSO subtracted) of RRKKGGKDFVVKR (also called peptide PRE 1; peptide recognition element 1) [PRE 1] is ____.
0

Fill in the blank: the reported relative binding capacity (100-%n, DMSO subtracted) of Ac-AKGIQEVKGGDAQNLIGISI-NH2 (also called peptide PRE 3) [PRE 3] is ____.
26.5
